Catalogue of Translation efficiency in comparison with m^7GpppG-LUC mRNA, Experiment No. 3 readings, one per entry.
- Tested on: rabbit reticulocyte lysate system
- Assay protocol: In vitro translation efficiency of capped luciferase mRNA, method I transcripts
- Assay type: biochemical
- Applied conditions: experiment 3

A selection of reference data follows.
# input Looking for the measured Translation efficiency in comparison with m^7GpppG-LUC mRNA, Experiment No. 3 of [BH3-]P(=O)(OP(=O)(O)OCC1OC(n2cnc3c(=O)[nH]c(N)nc32)C(O)C1O)OP(=O)(O)OCC1OC(n2c[n+](C)c3c(=O)[nH]c(N)nc32)C(O)C1O (mixture of isomers) [m^7GppBH3pG] , can you help?
# output 1.14

# input Next up: Cn1c[n+]([C@@H]2O[C@H](COP(=O)(O)OP(=O)(O)OP(=O)(O)OC[C@H]3O[C@@H](n4cnc5c(=O)[nH]c(N)nc54)[C@H](O)[C@@H]3O)[C@@H](O)[C@H]2O)c2nc(N)[nH]c(=O)c21 [m^7GpppG, m^7G(5′)ppp(5′)G, reference compound]
# output 1.00

# input Now the molecule Nc1nc2c(ncn2[C@@H]2O[C@H](COP(=O)(O)OP(=O)(O)OP(=O)(O)OC[C@H]3O[C@@H](n4cnc5c(N)ncnc54)[C@H](O)[C@@H]3O)[C@@H](O)[C@H]2O)c(=O)[nH]1 [ApppG, reference compound]
# output 0.53

Could you now look at the following molecule, please?
# input Give the measured Translation efficiency in comparison with m^7GpppG-LUC mRNA, Experiment No. 3 of CO[C@H]1[C@@H](O)[C@H]([n+]2cn(C)c3c(=O)[nH]c(N)nc32)O[C@@H]1COP(=O)([O-])OP(=O)(O)OP(=O)(O)OC[C@H]1O[C@@H](n2cnc3c(=O)[nH]c(N)nc32)[C@H](O)[C@@H]1O [m2^7,3′-OGpppG, 7-methyl(3′-O-methyl)GpppG, reference compound] .
# output 2.96
